These measurements were taken from patent US11992494B2.

SYSTEM UNDER TEST: UniProt:P25105
Sequence (P25105 whole entry): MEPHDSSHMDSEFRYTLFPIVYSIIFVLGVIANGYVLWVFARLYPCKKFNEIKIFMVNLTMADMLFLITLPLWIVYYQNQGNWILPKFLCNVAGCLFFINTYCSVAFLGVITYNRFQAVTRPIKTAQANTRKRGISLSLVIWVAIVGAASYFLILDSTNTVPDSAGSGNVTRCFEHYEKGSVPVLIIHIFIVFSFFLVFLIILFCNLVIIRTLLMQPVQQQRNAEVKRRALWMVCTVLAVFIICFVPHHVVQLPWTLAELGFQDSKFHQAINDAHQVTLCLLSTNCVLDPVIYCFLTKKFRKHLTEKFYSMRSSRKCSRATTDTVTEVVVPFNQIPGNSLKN
MEASUREMENT PROTOCOL: cellular HTRF IP1 assay: inhibition of PAFR activation by PAF C-16 ligand (endpoint assay)
Format: cell-based
Parameters: expressed in transfected cells; host or cells: HEK293
EXPERIMENTAL CONTEXT: HEK293 cells overexpressing human PAFR; PAF ligand 11 nM; Table 2
Give pIC50 for every item shown.
One number for each entry, as −log10 of the molar value.

Take a look at these entries with their results.
Cc1nnc2n1-c1sc3c(c1C(c1ccccc1Cl)=NC21CC1)C[C@H](C(=O)N[C@H]1CCc2ccccc21)C3 [Example 82] ... 8.82
Cc1nnc2n1-c1sc3c(c1C(c1ccccc1Cl)=NC21CC1)C[C@H](C(=O)N1CCC(F)(F)CC1)C3 [Example 129] ... 8.60
Cc1nnc2n1-c1sc3c(c1C(c1ccccc1Cl)=NC21CC1)C[C@H](C(=O)NC1(c2ccccc2)CC1)C3 [Example 46] ... 8.70
CCCN(C(=O)[C@@H]1Cc2sc3c(c2C1)C(c1ccccc1Cl)=NC1(CC1)c1nnc(C)n1-3)C1CCOCC1 [Example 115] ... 7.60
Cc1nnc2n1-c1sc3c(c1C(c1ccccc1Cl)=NC21CC1)C[C@H](C(=O)N[C@H]1CC[C@H](C(C)(C)O)CC1)C3 [Example 98] ... 8.04
CCn1ncc2c1CC[C@@H](NC(=O)[C@@H]1Cc3sc4c(c3C1)C(c1ccccc1Cl)=NC1(CC1)c1nnc(C)n1-4)C2 [Example 99] ... 8.09

# return pIC50 for each item in the list
1. CCn1ncc2c1CC[C@H](NC(=O)[C@@H]1Cc3sc4c(c3C1)C(c1ccccc1Cl)=NC1(CC1)c1nnc(C)n1-4)C2 [Example 100]
2. Cc1nnc2n1-c1sc3c(c1C(c1ccccc1Cl)=NC21CC1)C[C@H](C(=O)NC1CCC(F)(F)CC1)C3 [Example 118]

(A)
7.66
8.55

(Q) Entry Cc1nnc2n1-c1sc3c(c1C(c1ccccc1Cl)=NC21CC1)C[C@H](C(=O)NC1CC(F)(F)C1)C3 [Example 27] : reported pIC50 = ?
(A) 8.68
